Test: protein stability index of a GFP-peptide fusion (GPS, HEK-293T) (PSI 1-6); higher = more stable;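 further: 24-mer peptide tiles fused after GFP, lentivirally expressed, FACS-sorted into six equal bins by GFP/DsRed ratio, decoded by Illumina sequencing, PSI is the read-weighted mean bin number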
Details: treatment: DMSO; c terminus: a fixed tail appended
attributeMeasured: protein stability index

INSERT INTO measurements (macromoleculesequence, obsvalue) VALUES
  ('PASGSTFRGRRDVSGSWERDQQVE [RETREG3]', 4.67),
  ('SFRAGSKGLSGGFGSRSLYSLGGV [KRT71]', 2.12),
  ('LDFCDFTAEMARVLTDSNHVPLQR [FBXO33]', 3.07),
  ('TDVRGLEEFLSAMQSARGPTPSSP [PLEKHN1]', 4.12),
  ('ENFQEGKDMSESQDEVPDEVENQF [TAF7L]', 5.58),
  ('ERLQKEEEKRRREEEERLRREEEE [ACBD3]', 5.67),
  ('VKVPGIVRLRTLLCKVLGVLFSVA [CLCN6]', 2.21),
  ('KRCIVILREIPETTPIEEVKGLFK [LARP4]', 2.23),
  ('ATKPSHWCSVAYWEHRTRVGRLYA [SMAD6]', 2.62),
  ('LVVDYIDEGRLVLEFSLLSYAFGK [SOAT1]', 3.29),
  ('PPHVLISRPSAPFTEASMMMSLTK [ESR2]', 3.48),
  ('CGGYNGEVILGDIWKLNLQTFQWV [KLHDC10]', 2.44),
  ('GGRLENQKPRGLEGGVLRGSKLEK [ZSWIM9]', 4.91);

====

Assay: protein stability index of a GFP-peptide fusion (GPS, HEK-293T) (PSI 1-6); higher = more stable
Conditions: treatment: MLN4924 1 uM, 8 h; c terminus: a fixed tail appended
Tag: fulfilled if measured protein stability index is not below 3, not fulfilled if it is.

INSERT INTO assay_data (macromoleculesequence, qualitativelabel) VALUES
  ('LCSFLLLLLLQVSSSYAGQFRVIG [MOG]', 'fulfilled'),
  ('GPALPNGPLLGTNGATDDSKTNLI [ELAVL3]', 'fulfilled'),
  ('VEEVDMAEEFEQPTLSCEKYLTYD [ELOA2]', 'fulfilled'),
  ('DSSTSPKGKQPTSAENSVAKKEDK [NANOGP8]', 'fulfilled'),
  ('LSSDRVANSSSEAPFPNVSTSLLT [ADAMTSL2]', 'fulfilled'),
  ('SASAKRVWNMTATRPKKMGSQLPK [FATE1]', 'fulfilled'),
  ('NEKIYELRVMETKPDKAVSIIECD [UFD1]', 'fulfilled'),
  ('AVLDCLLDFLPKDVKKEKLSPDIM [TENT5D]', 'not fulfilled'),
  ('STNEEEKEENEAESDVKHRTRDYK [PRIM1]', 'fulfilled'),
  ('IYCGAGVQKDHENYMKILLKVGGI [PCMTD1]', 'not fulfilled'),
  ('MPSPCSCMSFNPETRRLSIGLDNG [WDFY2]', 'fulfilled'),
  ('RDNGDPSLSSTATVLLVLEDEDPE [PCDHGC5]', 'fulfilled'),
  ('TSTSSSITSSIPDTERLDDFHLSI [DVL3]', 'fulfilled'),
  ('QLCEKAPKEATVMCEQCDVFYCDP [TRIM9]', 'fulfilled'),
  ('LWKRMDKLEAEKRILQEKLDQPVS [CCDC6]', 'fulfilled'),
  ('SYAHGWMFQGWNCGDYFPDGITNG [CPN1]', 'not fulfilled'),
  ('TSTRYEQPKCDNTARAHPAKARDL [SMOC2]', 'fulfilled'),
  ('GSWGSFQLPGLLNFGEFKCSDSDK [CLCN6]', 'fulfilled'),
  ('MAGGPPNTKAEMEMSLAEELNHGR [FATE1]', 'fulfilled'),
  ('LVVDYIDEGRLVLEFSLLSYAFGK [SOAT1]', 'fulfilled'),
  ('SRSSILVQHQRVHTGEKPYKCLEC [ZNF24]', 'fulfilled'),
  ('ATECEFVGSLPVIVVGRLKVALEP [LPCAT4]', 'not fulfilled'),
  ('AMKITQEPQGLGYWEAWRHHCQGK [SPACA3]', 'fulfilled'),
  ('GDESSLLLNAASTVARPVFTEYQA [RHOBTB3]', 'fulfilled'),
  ('NCRLSEGDVMHLSQSPSVSQLSVL [PRAME]', 'not fulfilled');

====

Assay: protein stability index of a GFP-peptide fusion (GPS, HEK-293T) (PSI 1-6); higher = more stable
Details: treatment: MLN4924 1 uM, 8 h; c terminus: native
Tag: T if measured protein stability index is not below 4, F if it is.

INSERT INTO results (macromoleculesequence, qualitativelabel) VALUES
  ('TASLLLCPGGLDHKLNLRGKAWG [TIAF1]', 'F'),
  ('SSYVASIVDGGESRSEKGDSSRY [RBMY1A1]', 'T'),
  ('IYRKYRKLIESELSYFVIVYSVM [FBXO39]', 'F'),
  ('ARVKPPEGYDVVAVYPNAKVELV [PDLIM4]', 'F'),
  ('RERLGEIHTLPLPASLKAYLLYQ [SPSB1]', 'F'),
  ('KKVSKAAILARIKRTGDGNYKSG [SCD]', 'F'),
  ('IAMTSGTVQPKQDAFANFANFSK [CLINT1]', 'T'),
  ('PTKDRLEGLLAFKEKRPPRYKGE [AUH]', 'T');

====

Test: protein stability index of a GFP-peptide fusion (GPS, HEK-293T) (PSI 1-6); higher = more stable
Settings: treatment: DMSO; c terminus: a fixed tail appended
attributeMeasured: protein stability index

INSERT INTO results (macromoleculesequence, attributemeasured, obsvalue) VALUES
  ('AALNAHSDCCRKLLSSGFEIDTPD [ANKRD44]', 'protein stability index', 3.61),
  ('SAPVETPRGKPPLNTRSQAPLLRW [HMOX1]', 'protein stability index', 3.64),
  ('DSSTSPKGKQPTSAENSVAKKEDK [NANOGP8]', 'protein stability index', 5.57),
  ('RKDTKEIYTHFTCATDTKNVQFVF [GNAI1]', 'protein stability index', 2.49),
  ('SWAWRGPGVLKVLWLTASQPCSIV [LPCAT4]', 'protein stability index', 2.74),
  ('NIPGNSTLITAVELERFVNLHSLA [FBXO33]', 'protein stability index', 2.27),
  ('SSFSLLLDLLSELYQKQPKIGYHL [INTS3]', 'protein stability index', 3.05),
  ('NSTSVKKKSSRNIFSIVFVFFVCF [P2RY14]', 'protein stability index', 2),
  ('DWYQKQTPTSPECDYSQYFKTIEE [KRT15]', 'protein stability index', 3.86),
  ('MVRRLKMVVKTFMDMDQDSEEEKE [PDS5B]', 'protein stability index', 2.73),
  ('KIAQNLDFVNLMAYDFHGSWEKVT [CHIT1]', 'protein stability index', 2.42),
  ('YYLHPLPAGAEYCSSARHPAWGHC [SCNN1D]', 'protein stability index', 2.12);

====

Assay: protein stability index of a GFP-peptide fusion (GPS, HEK-293T) (PSI 1-6); higher = more stable
Conditions: treatment: MLN4924 1 uM, 8 h; c terminus: a fixed tail appended
Parameter: protein stability index. Scope: all listed entries.
attributeMeasured: protein stability index

INSERT INTO results (macromoleculesequence, obsvalue) VALUES
  ('MSIMGNVLRFLPAFVRMKQLIEEG [GFOD1]', 2.42),
  ('FNGELPNGRHKIPESQFPEFSTSL [SRPK2]', 3.72),
  ('HRWQVDLQLGDGGGCTVGVAGEGV [TRIM15]', 3.38),
  ('YPALREKSKKYSDVEVPASVTGYS [ADD1]', 4.28),
  ('ERLQKEEEKRRREEEERLRREEEE [ACBD3]', 5.59),
  ('VDNARIVLQIDNARLAADDFRVKY [KRT18]', 2.77),
  ('CESCVDLLFVRGAGNCPECGTPLR [MNAT1]', 4.51);

====

Experiment: protein stability index of a GFP-peptide fusion (GPS, HEK-293T) (PSI 1-6); higher = more stable
Conditions: treatment: MLN4924 1 uM, 8 h; c terminus: a fixed tail appended
In this scheme, each record receives a class according to its protein stability index; the ranges are low end (below 3), middle (3 to below 5), high end (5 or more)

INSERT INTO results (macromoleculesequence, qualitativelabel) VALUES
  ('IRLYGLQAGRLLWEQELYSQLVYS [WAS]', 'low end'),
  ('PVLEDNYMYLVIEELTREAVAVDV [HAGHL]', 'low end'),
  ('RKDTKEIYTHFTCATDTKNVQFVF [GNAI1]', 'low end'),
  ('TKSHIMLVQRQMSVIEEDLEEFQL [NECAB1]', 'middle'),
  ('DDNSCEDLEEERREEEEKTPPETK [PCMTD2]', 'high end'),
  ('IIGDYFSDQDPRVRTAAIKAMLQL [INTS4]', 'low end'),
  ('SLNMSRRDSESTRHDSETEDMLWD [PHTF1]', 'high end'),
  ('RRFNFDTDRPLLSTLEESVVRICC [SMG5]', 'low end'),
  ('PTQGPETPRSPEGTTEAATQDGKE [PXN]', 'high end'),
  ('KKVSEGPPLRLWRSVIEVPAVPEE [DLC1]', 'middle'),
  ('APGYDPETVTVTVGPAEPTLVNFH [CPN1]', 'middle');
